TARGET_ENTITY: T1, recombinant human IL4Rα-his protein (in house made) (human, UniProt P24394 26-232, limits assumed)
T1 construct: also called Human IL4Ra-his
MEASUREMENT_NOTES: competitive ELISA: antibody mixed with biotin human IL4Rα-his, competitor plate-coated Benchmark
Catalogue of pIC50 readings, one per entry.
Please express pIC50 as -log10 of the molar concentration.

Here's what some known entries look like.
| BINDER | pIC50 |
| --- | --- |
| huB8G11F2B7G5E8-V4 (antibody, human IgG4 S228P, kappa, V domains shown, Humanized, human IgG4/kappa; also called huBSG11F2B7G5E8-V4) VH: EVQLVQSGAEVKKPGATVKISCKASGFNIKDTYMHWVKQAPGKGLEWMGRIDPTNGYTIYASKFQGKATITADTSSNTAYMELSSLRSEDTAVYHCVSRRPWFAYWGQGTLVTVSS VL: DIVMTQTPLSLSVTPGQPASISCRSSQSIVHSNGNTYLEWYLQKPGQSPQLLIYKVTNRFSGVPDRFSGSGSGTDFTLKISRVEAEDVGVYYCFQGSHVPYTFGQGTKLEIKR | 8.91 |
| huB8G11F2B7G5E8-V2 (antibody, human IgG4 S228P, kappa, V domains shown, Humanized, human IgG4/kappa; also called huBSG11F2B7G5E8-V2) VH: EVQLVQSGAEVKKPGATVKISCKVSGFNIKDTYMHWVKQAPGKGLEWVGRIDPTNGYTIYASKFQGKATITADTSSNTAYMELSSLRSEDTAVYHCVSRRPWFAYWGQGTLVTVSS VL: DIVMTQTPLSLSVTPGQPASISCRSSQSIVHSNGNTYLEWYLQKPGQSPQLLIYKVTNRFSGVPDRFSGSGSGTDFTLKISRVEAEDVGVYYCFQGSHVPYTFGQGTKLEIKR | 8.92 |
| chimeric antibody B8G11F2B7G5E8 (antibody, human IgG4 S228P, kappa, V domains shown, Mouse variable domains on human IgG4/kappa; also called Chimeric B8G11F2B7G5E8; chB8G11F2B7G5E8) VH: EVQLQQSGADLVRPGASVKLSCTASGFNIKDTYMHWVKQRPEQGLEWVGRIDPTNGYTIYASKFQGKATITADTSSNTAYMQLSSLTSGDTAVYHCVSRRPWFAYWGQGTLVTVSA VL: DILMTQTPLSLPVSLGAQASISCRSSQSIVHSNGNTYLEWYLQKPGQSPKLLIYKVTNRFSGVPDRFSGSGSGTDFTLKISRVEAEDLGIYYCFQGSHVPYTFGGGTKLEIKR | 8.82 |

Next:
Q: Using known records, supply pIC50 for huB8G11F2B7G5E8-V14 (antibody, human IgG4 S228P, kappa, V domains shown, Humanized, human IgG4/kappa; also called huBSG11F2B7G5E8-V14) VH: EVQLVQSGAEVKKPGATVKISCKVSGFNIKDTYMHWVKQAPGKGLEWMGRIDPTNGYTIYASKFQGKATITADTSSNTAYMELSSLRSEDTAVYHCVSRRPWFAYWGQGTLVTVSS VL: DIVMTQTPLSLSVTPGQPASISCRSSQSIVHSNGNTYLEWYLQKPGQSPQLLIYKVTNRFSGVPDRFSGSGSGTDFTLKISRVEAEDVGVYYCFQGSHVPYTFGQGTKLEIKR
Result: 9.12
